target: DRB1*15:01; conditions: modification not given
measured-quantity: IC50 (µM)
Respond numerically; units are µM and should not be typed.

Q: Could you share which IC50 value was measured for TWRVYSTGSNVFQTR [… (position 632)] ?
Ans: 1.95
